- targetOrSystem: Phosphodiesterase PDE IV
- experimentSummary: Phosphodiesterase PDE IV enzyme assay (MDS Pharma Service No. 154000)
- conditionDetails: Oxaprozin as the monoethanolamine salt
quantityKind: IC50 (µM)

{"columns": ["compound", "measured"],
 "data": [
  ["O=C(O)CCc1nc(-c2ccccc2)c(-c2ccccc2)o1 [Monoethanolamine Oxaprozin]", 22]
]}

----------
Protein target, amino acids: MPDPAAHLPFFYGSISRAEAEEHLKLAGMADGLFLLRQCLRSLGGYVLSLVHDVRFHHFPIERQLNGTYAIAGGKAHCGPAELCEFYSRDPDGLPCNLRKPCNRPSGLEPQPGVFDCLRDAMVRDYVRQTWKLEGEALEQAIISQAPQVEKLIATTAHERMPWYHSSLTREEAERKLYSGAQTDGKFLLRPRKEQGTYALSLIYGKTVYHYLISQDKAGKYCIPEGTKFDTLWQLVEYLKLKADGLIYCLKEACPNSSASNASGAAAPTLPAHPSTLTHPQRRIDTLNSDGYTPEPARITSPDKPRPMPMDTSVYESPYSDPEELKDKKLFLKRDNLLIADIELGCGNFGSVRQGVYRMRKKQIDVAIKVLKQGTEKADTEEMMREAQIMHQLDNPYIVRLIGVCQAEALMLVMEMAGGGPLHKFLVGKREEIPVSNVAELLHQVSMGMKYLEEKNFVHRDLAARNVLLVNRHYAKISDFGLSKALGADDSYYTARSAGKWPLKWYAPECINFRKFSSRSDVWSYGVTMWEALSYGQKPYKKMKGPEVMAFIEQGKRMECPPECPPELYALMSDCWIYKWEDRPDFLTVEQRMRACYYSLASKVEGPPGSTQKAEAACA
pIC50: −log10 of the molar value.

{"columns": ["chemicalString", "pIC50"],
 "data": [
  ["O=C(O)CCc1nc(-c2ccccc2)c(-c2ccccc2)o1", 4.42]
]}
